EC50 reference
test-system: 5-HT2B receptor (Homo sapiens (Human))
Sequence (P41595 whole entry): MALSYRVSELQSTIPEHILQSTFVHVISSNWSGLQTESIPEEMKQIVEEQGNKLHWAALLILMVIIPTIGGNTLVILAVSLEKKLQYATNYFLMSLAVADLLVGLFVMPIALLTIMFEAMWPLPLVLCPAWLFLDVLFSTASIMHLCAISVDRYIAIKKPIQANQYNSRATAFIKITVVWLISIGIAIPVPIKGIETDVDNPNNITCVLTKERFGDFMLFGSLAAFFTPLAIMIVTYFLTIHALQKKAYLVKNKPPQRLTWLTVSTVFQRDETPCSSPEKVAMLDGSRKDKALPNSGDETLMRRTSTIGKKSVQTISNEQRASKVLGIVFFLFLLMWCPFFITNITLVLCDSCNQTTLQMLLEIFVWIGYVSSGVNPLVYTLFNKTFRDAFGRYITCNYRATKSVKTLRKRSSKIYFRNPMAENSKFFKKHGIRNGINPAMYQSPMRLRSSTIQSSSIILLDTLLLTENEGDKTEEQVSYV
procedure-text: IP accumulation assay, 5-HT2B
Format: cell-based
observed-property: EC50

[[record]]
compound = "Clc1ccnc2c1CC[C@@H]1CNCCN21 [Compound 150]"
observed_property = "EC50"
measured_result = "45.4 nM"

[[record]]
compound = "CC(C)Cc1ccnc2c1CC[C@@H]1CNCCN21 [Compound 114]"
observed_property = "EC50"
measured_result = "351 nM"

[[record]]
compound = "c1cc2c(cn1)CC[C@@H]1CNCCN21 [Compound 155]"
observed_property = "EC50"
measured_result = "≥ 100000 nM"

[[record]]
compound = "c1ccc(Cc2cncc3c2CC[C@@H]2CNCCN32)cc1 [Compound 175]"
observed_property = "EC50"
measured_result = "19900 nM"

[[record]]
compound = "c1cc2c(c(CC3CCC3)n1)CC[C@@H]1CNCCN21 [Compound 154]"
observed_property = "EC50"
measured_result = "≥ 100000 nM"

[[record]]
compound = "c1cc(C2CC2)c2c(n1)N1CCNC[C@H]1CC2 [Compound 151]"
observed_property = "EC50"
measured_result = "15 nM"

